Origin of the recorded values: ChEMBL document CHEMBL1137324

assay: Permeability from basolateral to apical side of Caco-2 cells; type: ADME, cell-based; conditions: human, read-out: permeability
Readout kind: Papp B→A (×10⁻⁶ cm/s)
Number in ×10⁻⁶ cm/s, nothing else.

Short answer for O=C(O)COc1ccc(Br)cc1C(=O)c1cnn(-c2ccccc2)c1 : Papp B→A was 13

###

assay: Bioavailability in rat; type: ADME, organism-based; details: in vivo
Readout kind: bioavailability (%)
Number in %, nothing else.

Short answer for O=C(O)COc1ccc(Br)cc1C(=O)c1cnn(-c2ccccc2)c1 : bioavailability was 84

###

target: Prostaglandin D2 receptor 2 (Homo sapiens); assay: Displacement of [3H]PGD2 from human CRTH2 receptor expressed in HEK293 cells; type: cell-based
Readout kind: IC50 (nM)
Number in nM, nothing else.

Short answer for O=C(O)COc1ccc(F)cc1C(=O)c1cnn(-c2ccccc2)c1 : IC50 was 108

###

pIC50 by entry:
Molecular target: Prostaglandin D2 receptor 2 (Homo sapiens)
Sequence (Q9Y5Y4 whole entry): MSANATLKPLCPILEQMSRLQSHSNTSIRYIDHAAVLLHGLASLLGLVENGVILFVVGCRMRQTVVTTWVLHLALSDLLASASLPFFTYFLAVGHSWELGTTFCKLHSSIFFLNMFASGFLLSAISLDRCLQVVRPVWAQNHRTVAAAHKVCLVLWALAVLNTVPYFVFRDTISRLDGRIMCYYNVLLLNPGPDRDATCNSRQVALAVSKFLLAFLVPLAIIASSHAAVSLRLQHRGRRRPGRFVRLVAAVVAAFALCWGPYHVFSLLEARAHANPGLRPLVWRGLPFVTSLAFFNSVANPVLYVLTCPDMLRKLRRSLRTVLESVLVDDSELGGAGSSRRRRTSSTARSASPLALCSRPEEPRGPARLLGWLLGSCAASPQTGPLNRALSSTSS
Test: Displacement of [3H]PGD2 from human CRTH2 receptor expressed in HEK293 cells
Format: cell-based
Reminder that pIC50 is minus the log10 of a molar concentration.

Here's what some known entries look like.
In [3]: df
Out[3]:
                              smiles_record  readout_kind  result
0  COc1ccc(OCC(=O)O)c(C(=O)c2cnn(-c3ccccc3)c2)c1         pIC50    6.82
1                   O=Cc1cc(Br)ccc1OCC(=O)O         pIC50    6.91

Short answer for O=C(O)COc1ccc(Br)cc1/C=N/Nc1nncc(-c2ccccc2)n1 : pIC50 was 7.05
